# Test system: P. falciparum Dd2 (PfLuc) line expressing firefly luciferase, asexual blood stage
# method.description: microbe, parasite or virus in culture
# Assay type: cell-based, Plasmodium falciparum
# condition.info: Plasmodium falciparum, DD2, read-out: CDD P. falciparum Luciferase ABS 11-pt Reconfirmation Dose Response (48hr): IC50 (μM); 11-pt dose response, 48hr
With a cut-off of 1 µM, any IC50 strictly below it is called Condition met; any IC50 meeting it or above is called Condition not met.

molecule: COc1cccc(CNCc2cccc(Cl)c2)c1O
category: Condition not met
--
molecule: Fc1cccc(CN2C[C@@H]3CN(Cc4ccccn4)C[C@@H]3C2)c1
category: Condition not met
--
molecule: c1ccc(-c2nc3c(c(NCc4n[nH]c5c4CCC5)n2)CCNC3)cc1
category: Condition not met
--
molecule: Cc1cccc2[nH]c(-c3cn(C4CCNCC4)nn3)nc12
category: Condition not met
--
molecule: CC1CCCCN1C(=O)c1coc(COc2cccc3cnccc23)n1 (stereo not shown)
category: Condition met
--
molecule: CN(CCO)Cc1cc(Cl)ccc1OCC(O)CN1CCCCCC1 (stereo not shown)
category: Condition not met
--
molecule: Cc1cccc(C)c1Nc1noc2c1CN(C(=O)c1cn(C)cn1)CC2
category: Condition met

###

# Test system: HepG2-A16-CD81 hepatocytes
# method.description: cells
# Design: Uninfected hepatocyte viability, CellTiter-Glo luminescence
# condition.info: sheet CDD Export 1;, cytotoxicity primary screen, read-out: Table S5. Liver stage reconfirmation data / HepG2 Cytotoxicity primary screen (2uM): % Inhibition
# Procedure: For the screen, 5 μL of HepG2-A16-CD81 hepatocytes containing 3 × 10^3 cells was seeded into 1536-well plates, which had been prespotted with 10 nL of library compound (2 μM final assay concentration (Figure 1)) and incubated overnight. For PbLuc infected plates, approximately 750 purified sporozoites in 5 μL of screening media were added to each well and incubated for 48 h before measuring luciferase activity. […]

molecule: Nc1nc(CCC(=O)N2CCOC(CC3CCCCC3)C2)cs1 (stereo not shown) [DDD01258215]
inhibition at 2 µM [%]: -10.6
//
molecule: O=C(CN1CCCC(c2ccn[nH]2)C1)Nc1nc2c(s1)CCCC2 (stereo not shown) [DDD01079490]
inhibition at 2 µM [%]: 7.13
//
molecule: Cc1ncc(CN2CCOC(c3ccc(-c4ccccc4F)cn3)C2)s1 (stereo not shown) [DDD01059493]
inhibition at 2 µM [%]: -6.23
//
molecule: Cn1cc(NS(=O)(=O)c2ccc(OC(F)(F)F)cc2)ccc1=O [DDD01303273]
inhibition at 2 µM [%]: -4.65

###

# method.description: HepG2 cytotoxicity screening (CellTiter-Glo)
# condition.info: human, uninfected HepG2-A16-CD81 (EGFP) hepatocytes
pIC50: −log10 of the molar value.
measure: pIC50

molecule: Fc1ccc(CN2CCCC(c3cc4ncccc4[nH]3)C2)cc1 (stereo not drawn)
result: < 4.60

molecule: C[C@H](c1ccc(F)cc1)n1c(C2CCN(C)CC2)n[nH]c1=O
result: < 4.30

molecule: CC(C)(C)OC(=O)N1CCCN(Cc2ccon2)c2ccccc21
result: < 4.60

molecule: CNC(=O)CCC(=O)N1CCOC(c2ccc3cc(OC)ccc3c2)C1 (stereo not drawn)
result: < 4.60

molecule: CC(=O)c1c(F)cccc1N1CCC(Cc2cccnc2)CC1
result: 4.81

molecule: CN(CCc1ccncc1)CCc1nccs1
result: < 4.30

molecule: O=C(NCCCN1CCCCC1)c1ccc(-n2ccc3ccccc32)s1
result: 4.66

molecule: CCc1nc(CN2CCCN(c3ncnc4ccsc34)CC2)no1
result: < 4.30

molecule: CC(C)CC(=O)NCc1cccc(OCCN(C)C2CCOCC2)c1
result: < 4.30

molecule: O=C(CN1CCCC(c2ccn[nH]2)C1)Nc1nc2c(s1)CCCC2 (stereo not drawn)
result: < 4.60

molecule: CC(C)(C)NC(=O)N1CCC(Oc2ccc(C(F)(F)F)cn2)CC1
result: < 4.60

molecule: O=C(NC1CCCC1)O[C@H]1COCCN(c2nc3ccccc3s2)C1
result: < 4.60

molecule: CCS(=O)(=O)N1CCc2ccc(NC(=O)Nc3cccc(F)c3)cc21
result: 4.75

molecule: CCN1CC(CN(C)c2cc(C)nc(N)n2)Oc2ccccc21 (stereo not drawn)
result: 4.69

molecule: NC(=O)C1CN(C(=O)Nc2cc(Cl)cc(Cl)c2)CCO1 (stereo not drawn)
result: 4.77

molecule: N#Cc1c(Cl)nsc1NCc1cccnc1OCC(F)(F)F
result: < 4.60

molecule: CSc1ccc(CN2C[C@@H]3CC[C@@](O)(c4ccc(C)cn4)[C@@H]3C2)cc1
result: < 4.60

molecule: CCc1nc(CN2CCCN(c3ncnc4ccccc34)CC2)no1
result: < 5.73

molecule: Cc1cc(NC(=O)C(C)C)n(-c2nc(C)c(C)c(=O)[nH]2)n1
result: < 4.60

molecule: CC(C(=O)Nc1sccc1C(N)=O)N(C)CCOc1ccccc1 (stereo not drawn)
result: < 4.60

molecule: Clc1ccccc1-c1cc(CNc2ncnc3c2CCNCC3)no1
result: < 4.60

molecule: Cc1ccc2cc(C3(O)CCN(C(=O)CSC(C)C)CC3)ccc2n1
result: < 4.30

molecule: CC(C)CN1CCCC1c1ccc(C(=O)Nc2cccnc2)s1 (stereo not drawn)
result: < 4.60

molecule: COc1cc(C)c(CN2CCc3nc4ccsc4c(=O)n3CC2)cc1C
result: < 4.60

molecule: CCc1cc(=O)[nH]c(-n2nc(C3CC3)cc2NC(=O)C2CC2)n1
result: < 4.60

molecule: COc1ccc(-c2nc(CN3CC(n4cc(C)cn4)C3)no2)cc1
result: < 4.60

molecule: Nc1nccc(N2CCCC(CO)(CCOc3ccccc3)C2)n1 (stereo not drawn)
result: < 4.60

molecule: Cc1cn2c(n1)C(CNCC1=Cc3ccccc3OC1)CCC2 (stereo not drawn)
result: < 4.60

molecule: Cc1cccc(NCc2ncc(C(C)(C)C)o2)c1
result: < 4.30

molecule: COc1cccc(-c2noc3c2CN(c2ncnc4c2CCC4)CC3)c1
result: 5.07

###

Listed here: items and their measured IC50.
# Test system: P. falciparum Dd2 (PfLuc) line expressing firefly luciferase, asexual blood stage
# method.description: microbe, parasite or virus in culture
# Assay type: cell-based, Plasmodium falciparum
# condition.info: Plasmodium falciparum, DD2, read-out: CDD P. falciparum Luciferase ABS 11-pt Reconfirmation Dose Response (48hr): IC50 (μM); 11-pt dose response, 48hr

compound: Cc1nc(-c2ccc(F)c(F)c2)cc(C2CCNCC2)n1
IC50: > 12.5 µM
//
compound: Cc1nc(-c2cc(Cl)cc3c2OC(CN)C3)c[nH]1 (stereo not drawn)
IC50: > 12.5 µM
//
compound: Cc1n[nH]cc1CNC1(c2ccc(F)cc2)CCCC1
IC50: > 12.5 µM

###

# System: P. falciparum Dd2 (PfLuc) line expressing firefly luciferase, asexual blood stage
# method.description: microbe, parasite or virus in culture
# Assay type: cell-based, Plasmodium falciparum
# condition.info: Plasmodium falciparum, DD2; 11-pt dose response, 48hr; read-out: P. falciparum Luciferase ABS 11-pt Reconfirmation Dose Response (48hr): Maximum inhibition (%)
measure: Emax (%)

compound: OCCN1CCC(CNCc2ccccc2OC(F)(F)F)CC1
target: P. falciparum Dd2 (PfLuc) line expressing firefly luciferase, asexual blood stage
result: 54.6
--
compound: OCc1csc(N2CCCC(COc3cccc(F)c3)C2)n1 (stereo not shown)
target: P. falciparum Dd2 (PfLuc) line expressing firefly luciferase, asexual blood stage
result: 45.9
--
compound: COCCOc1ccccc1CNCC1COC2(CCCC2)O1 (stereo not shown)
target: P. falciparum Dd2 (PfLuc) line expressing firefly luciferase, asexual blood stage
result: 29.8
--
compound: CCC(CNC(=O)CNC(C)=O)Oc1cccc(F)c1 (stereo not shown)
target: P. falciparum Dd2 (PfLuc) line expressing firefly luciferase, asexual blood stage
result: 55.6
--
compound: c1cncc(N2CCCC3(CCN(CCN4CCCC4)CC3)C2)c1
target: P. falciparum Dd2 (PfLuc) line expressing firefly luciferase, asexual blood stage
result: 83.2
--
compound: COCCn1ccnc1CN(Cc1ccccn1)Cc1sccc1C
target: P. falciparum Dd2 (PfLuc) line expressing firefly luciferase, asexual blood stage
result: 94.7
--
compound: COc1ccc(CN2CCNC(=O)CC2)cc1SC(F)(F)F
target: P. falciparum Dd2 (PfLuc) line expressing firefly luciferase, asexual blood stage
result: 57.7
--
compound: CN(Cc1ccccc1-n1cccn1)C[C@@H]1CCCN2CCCC[C@H]12
target: P. falciparum Dd2 (PfLuc) line expressing firefly luciferase, asexual blood stage
result: 53.8
--
compound: COCCN(C)Cc1cc(Cl)ccc1OCC(O)CN1CCCCCC1 (stereo not shown)
target: P. falciparum Dd2 (PfLuc) line expressing firefly luciferase, asexual blood stage
result: 98.3
--
compound: CC(C)(C)c1cn2c(n1)C(CNCc1ccccn1)CCC2 (stereo not shown)
target: P. falciparum Dd2 (PfLuc) line expressing firefly luciferase, asexual blood stage
result: 90.4
--
compound: CCc1ccc(CN(CCN(C)C)Cc2ccc(C)s2)nc1
target: P. falciparum Dd2 (PfLuc) line expressing firefly luciferase, asexual blood stage
result: 95.2
--
compound: CCc1ccc(-c2cc(C(F)(F)F)nc(N3CCC(N)CC3)n2)cc1
target: P. falciparum Dd2 (PfLuc) line expressing firefly luciferase, asexual blood stage
result: 98.9
--
compound: Cc1cc(S(=O)(=O)NCC2CNCCOC2)c(C)cc1Cl (stereo not shown)
target: P. falciparum Dd2 (PfLuc) line expressing firefly luciferase, asexual blood stage
result: 24.9

Where these numbers come from: paper PMC7155171
